Recorded values, source ChEMBL document CHEMBL1201862.

tested on: 786-0; assay: NCI tumour cell line growth inhibition, 48 h
Calls of active or inactive are those of the source. Rule as the data show it: active = GI50 up to about 1.1 µM and inactive = higher.
parameter-measured: GI50

These solved cases illustrate the format of a correct answer.
molecule="CC(Cl)CN1c2ccccc2Sc2ccc(Cl)cc21 (stereo not given)" parameter_measured=GI50 recorded_value="> 10 µM (inactive)"
molecule=N#CC(C#N)=Cc1ccc(CP(=O)(O)O)cc1 parameter_measured=GI50 recorded_value="> 100 µM (inactive)"
molecule="Cc1c(N)nc(C(CC(N)=O)NCC(N)C(N)=O)nc1C(=O)NC(C(=O)NC(C)C(O)C(C)C(=O)NC(C(=O)NCCc1nc(-c2nc(C(=O)NCCCNC(C)c3ccccc3)cs2)cs1)C(C)O)C(OC1OC(CO)C(O)C(O)C1OC1OC(CO)C(O)C(OC(N)=O)C1O)c1c[nH]cn1 (stereo not given)" parameter_measured=GI50 recorded_value="0.419 µM (active)"

// next entry
input: Tell me the measured GI50 of Clc1ccc(Nc2nnc(CCCCCCCCc3nnc(Nc4ccc(Cl)cc4)o3)o2)cc1 , please.
output: 24.5 µM (inactive)

---

A collection of compounds and their measured GI50
tested on: COLO 205; assay: NCI tumour cell line growth inhibition, 48 h
Activity calls are given as the source filed them. Cut-off read from the data, not from the text of the source: active = GI50 up to about 1.1 µM and inactive = higher.

compound="O=C(CC(C(=O)c1ccsc1)c1ccccc1)c1cccs1 (stereo not drawn)" tgt="COLO 205" recorded_value="> 100 µM (inactive)"
compound="O=C1c2ccccc2C(=O)c2c(NCCNC(=O)C3CCCN3)ccc(NCCNC(=O)C3CCCN3)c21 (stereo not drawn)" tgt="COLO 205" recorded_value="24.5 µM (inactive)"
compound=Clc1cccc(-c2nc3cccc4c3n2Cc2ncccc2-4)c1 tgt="COLO 205" recorded_value="> 100 µM (inactive)"
compound=NC(=O)Nc1ccc(C(=O)NCCCNC(=O)c2ccc(NC(N)=O)cc2)cc1 tgt="COLO 205" recorded_value="> 100 µM (inactive)"

input: Tell me the measured GI50 of O=P1(Oc2ccc(Cl)cc2)OCCS1 (stereo not drawn) , please.
output: > 100 µM (inactive)

input: Tell me the measured GI50 of CN(C)CCN(C)C(=O)C1CCCN1C(=O)OCc1ccccc1 (stereo not drawn) , please.
output: > 100 µM (inactive)

input: Tell me the measured GI50 of CC(C)CCNC(=O)c1ccc(CNC(=O)/C=C/c2ccc3ccccc3c2)cc1 , please.
output: > 100 µM (inactive)

input: Tell me the measured GI50 of C[N+]1(C)CCCC(C#N)(c2ccccc2)CC1 (stereo not drawn) , please.
output: > 100 µM (inactive)

input: Tell me the measured GI50 of COC(=O)C1[C@H](c2cc(OC)c(OC)c(OC)c2)OC(=O)C1(C(=O)OC)C(=O)c1ccc2c(c1)OCO2 (stereo partly drawn) , please.
output: > 100 µM (inactive)

input: Tell me the measured GI50 of CCCCCCCCCCCCCS(=O)(=O)NCC(N)=O , please.
output: > 100 µM (inactive)

input: Tell me the measured GI50 of O=C1CC(C2(O)C(=O)Nc3ccc([N+](=O)[O-])cc32)c2ccccc21 (stereo not drawn) , please.
output: 25.4 µM (inactive)

input: Tell me the measured GI50 of Cc1nc(N)c(N2CCN(Cc3ccccc3)CC2)c(O)n1 , please.
output: > 100 µM (inactive)

---

test system: Malme-3M; assay: NCI tumour cell line growth inhibition, 48 h
Calls of active or inactive are those of the source. Cut-off read from the data, not from the text of the source: active = GI50 up to about 1.1 µM and inactive = higher. Bridge positions count the residues as written; N and C are the ends. Square brackets hold non-standard residues; d marks the D form. Peptide text beside a SMILES is read from it. * marks the point of attachment. Cya = N[CH](CS(=O)(=O)O)C(=O)O; X49 = CC(C)CCCCCCCC(O)CC(=O)*; GABA = NCCCC(=O)O
Valid outcomes are listed here; reply with one: Yes = active, No = inactive

Before answering, review these 10 worked examples.
compound="CC(C)CCCCCCCC(O)CC(=O)NC(CS(=O)(=O)O)C(=O)NC(CC(C)C)C(=O)NCCCC(=O)NC(Cc1c[nH]cn1)C(=O)NC(C)C(=O)NC1C(=O)NC(C(C)O)C(=O)NC(Cc2c[nH]cn2)C(=O)NC(C)C(=O)NC(C(C)O)C(=O)OC1C (centres undefined) (X49-[Cya]L[GABA]HATTHAT; ester 6-C; configuration not given here)" tgt=Malme-3M category=No
compound="CSc1nc(Cl)c2c(n1)Sc1nc3cc4c(cc3n1C2O)OCCO4 (centres undefined)" tgt=Malme-3M category=Yes
compound="CCCCC1C(=O)N(c2ccc(S(=O)(=O)Nc3ccccn3)cc2)N(c2ccc(O)c(C(=O)O)c2)C1=O (centres undefined)" tgt=Malme-3M category=No
compound=Cc1cc(=O)oc2cc(OCc3c(F)cccc3Cl)ccc12 tgt=Malme-3M category=Yes
compound=CCNC(=O)N(CC)CN(CC)C(=O)NCC tgt=Malme-3M category=No
compound="CC(C)C(=O)CC(c1ccc(Br)cc1)N1N=C(C(C)C)CC1c1ccc(Br)cc1 (centres undefined)" tgt=Malme-3M category=No
compound="OC1OC(c2ccco2)C(F)(F)C(F)(F)C1(F)F (centres undefined)" tgt=Malme-3M category=No
compound="CC(=O)OC12OC(C)(C3C(=O)N(c4ccccc4)C(=O)C31)N(c1ccccc1)C2=O (centres undefined)" tgt=Malme-3M category=No
compound="CC(=O)OCC1OC(OC(C)=O)C(NC#N)C(OC(C)=O)C1OC(C)=O (centres undefined)" tgt=Malme-3M category=No
compound=NC(=O)/C(=C\c1ccncc1)c1cccc2ccccc12 tgt=Malme-3M category=No

input: Per the assay record, what outcome was assigned to CCCCCCCCCCCCCCCCOC(=O)C(C(=O)OCCCCCCCCCCCCCCCC)[N+](C)(C)CCOC(C)=O ?
output: No

input: Per the assay record, what outcome was assigned to COC(=O)NCCc1n[nH]c2c1C(=O)C=C(N1CCOCC1)C2=O ?
output: No

input: Per the assay record, what outcome was assigned to CCCNC1=NC(C)=CSC(Nc2ccccc2)=C1C#N ?
output: No

input: Per the assay record, what outcome was assigned to O=c1[nH]c(=O)n(COCCOCc2ccccc2)cc1Nc1ccccc1 ?
output: No

input: Per the assay record, what outcome was assigned to COc1cc2c(cc1O)[C@@H]1Cc3c(cc(OC)c(OC)c3Oc3cc4c(cc3OC)CCN(C)[C@@H]4Cc3ccc(O)cc3)[C@H](C2)N1C ?
output: No

input: Per the assay record, what outcome was assigned to OCC1CCC(n2cnc3c(O)ncnc32)O1 (centres undefined) ?
output: No

input: Per the assay record, what outcome was assigned to OCc1ccc(-c2ccc(-c3ccc(CO)s3)o2)s1 ?
output: No

input: Per the assay record, what outcome was assigned to COc1ccccc1/C=C\c1cc(OC)c(OC)c(OC)c1 ?
output: No

input: Per the assay record, what outcome was assigned to CCC1C(=O)OCc2c1cc1n(c2=O)Cc2cc3ccccc3nc2-1 (centres undefined) ?
output: No

input: Per the assay record, what outcome was assigned to CS(=O)(=O)NNS(=O)(=O)c1ccc(F)cc1 ?
output: No

input: Per the assay record, what outcome was assigned to Cc1nc(O)nc(NNCc2ccc(Cl)cc2)c1C(=O)Nc1ccc(Cl)cc1 ?
output: No

input: Per the assay record, what outcome was assigned to C=C(C)C1CC=C(C)CC1 (centres undefined) ?
output: No

input: Per the assay record, what outcome was assigned to CCOC(=O)c1sc2nc(SC)nc(Nc3ccc4c(c3)OCO4)c2c1N ?
output: No

input: Per the assay record, what outcome was assigned to CC1=C(C(=O)NNS(=O)(=O)c2ccc(C)cc2)CC(C(=O)NNS(=O)(=O)c2ccc(C)cc2)=C(C)N1 ?
output: No

---

tested on: SK-OV-3; experiment: NCI tumour cell line growth inhibition, 48 h
Calls of active or inactive are those of the source. Cut-off read from the data, not from the text of the source: active = GI50 up to about 1.1 µM and inactive = higher.
A collection of compounds and their measured GI50

compound=COC(=O)[C@@H]1C(=O)O[C@@H](c2ccc3c(c2)OCO3)[C@@H]1C(=O)OC.COC(=O)[C@H]1C(=O)O[C@@H](c2ccc3c(c2)OCO3)[C@@H]1C(=O)OC recorded_value="> 100 µM (inactive)"
compound=COc1cc(CC(=O)c2ccc3c(c2)OCO3)cc(OC)c1OC recorded_value="> 100 µM (inactive)"
compound="CCCC(C(=O)OC)C1N/C(=N/C#N)N(Cc2ccccc2)C1=O (centres undefined)" recorded_value="> 100 µM (inactive)"
compound=CC1=C(C(=O)CC(=O)C(=O)Nc2cccc(C)c2C)Sc2ccccc2N1 recorded_value="> 100 µM (inactive)"
compound="O=C1C2=C(C3=NCCc4c[nH]c1c43)C1(C=C(Br)C(O)C(Br)=C1)CCN2 (centres undefined)" recorded_value="13.3 µM (inactive)"

input: Tell me the measured GI50 of Cc1cc(OCc2nc(N)nc(N)c2-c2ccc(Cl)c(Cl)c2)ccc1[N+](=O)[O-] , please.
output: 3.01 µM (inactive)
